ASSAYED_TARGET: NK3 (Homo sapiens)
Sequence (P29371 whole entry): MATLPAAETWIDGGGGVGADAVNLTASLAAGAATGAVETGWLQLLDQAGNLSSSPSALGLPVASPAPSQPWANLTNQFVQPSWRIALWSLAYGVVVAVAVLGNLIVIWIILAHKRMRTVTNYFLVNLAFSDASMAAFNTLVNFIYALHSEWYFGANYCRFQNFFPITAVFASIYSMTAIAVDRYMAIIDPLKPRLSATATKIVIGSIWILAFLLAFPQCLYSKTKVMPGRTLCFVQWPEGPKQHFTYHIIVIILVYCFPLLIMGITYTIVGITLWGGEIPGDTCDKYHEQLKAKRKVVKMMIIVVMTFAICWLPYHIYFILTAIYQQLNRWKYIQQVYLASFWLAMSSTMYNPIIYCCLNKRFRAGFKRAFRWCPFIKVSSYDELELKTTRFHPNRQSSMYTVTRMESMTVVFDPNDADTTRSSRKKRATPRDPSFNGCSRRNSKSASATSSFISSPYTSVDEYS
ASSAY_OVERVIEW: Signal transduction (ST), intracellular Ca++ (FLIPR), NK3
Format: cell-based
MEASUREMENT_CONDITIONS: antagonist, Ca++ transient peak, read-out: pIC50 NK3 (converted)
PROPERTY_NAME: IC50 (µM)
# output: bare number, implied unit µM

Known value: NK3 (Homo sapiens) IC50 of the molecule O=C1CC2(CCN([C@@H]3CCN(C(=O)c4cc(C(F)(F)F)cc(C(F)(F)F)c4)[C@H](Cc4ccccc4)C3)CC2)CN1Cc1ccoc1 equals 8.13

Tested on NK3 (Homo sapiens), the item O=C1CC2(CCN(C3CCN(C(=O)c4cc(C(F)(F)F)cc(C(F)(F)F)c4)C(Cc4ccccc4)C3)CC2)CN1CC1CCCO1 (stereo not drawn) showed IC50 equal to 6.92

Reported NK3 (Homo sapiens) IC50 for item O=C1CC2(CCN([C@@H]3CCN(C(=O)c4cc(C(F)(F)F)cc(C(F)(F)F)c4)[C@H](Cc4ccccc4)C3)CC2)CN1Cc1ccccc1 was 11

I looked up O=C1CC2(CCN([C@@H]3CCN(C(=O)c4cc(C(F)(F)F)cc(C(F)(F)F)c4)[C@H](Cc4ccccc4)C3)CC2)CN1CC1CC1 and its IC50 for NK3 (Homo sapiens) was 5.25

----------
ASSAYED_TARGET: NK2 (Homo sapiens, UniProt P21452)
Sequence (P21452 1-398): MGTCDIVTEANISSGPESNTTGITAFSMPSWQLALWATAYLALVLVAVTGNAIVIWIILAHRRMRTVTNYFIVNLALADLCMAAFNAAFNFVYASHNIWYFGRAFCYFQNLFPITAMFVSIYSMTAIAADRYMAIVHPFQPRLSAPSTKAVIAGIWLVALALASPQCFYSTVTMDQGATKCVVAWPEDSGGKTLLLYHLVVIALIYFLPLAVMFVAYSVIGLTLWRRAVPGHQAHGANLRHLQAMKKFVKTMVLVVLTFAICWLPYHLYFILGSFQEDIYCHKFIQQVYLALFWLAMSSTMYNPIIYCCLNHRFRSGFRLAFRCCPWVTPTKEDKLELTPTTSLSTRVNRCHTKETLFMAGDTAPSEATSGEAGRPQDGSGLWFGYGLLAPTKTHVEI
ASSAY_OVERVIEW: Signal transduction (ST), intracellular Ca++ (FLIPR), NK2
Assay type: cell-based
MEASUREMENT_CONDITIONS: antagonist, Ca++ transient peak, read-out: pIC50 NK2 (converted)
Lab note: cut-off is 5 µM. Strictly less in IC50 is Criterion met. Exactly 5 µM or more is Criterion not met.

# TODO verify IC50 < 5 µM strictly for this compound: O=C1CC2(CCN([C@H]3CCN(C(=O)c4cc(C(F)(F)F)cc(C(F)(F)F)c4)[C@H](Cc4ccccc4)C3)CC2)CN1Cc1ccccc1Cl [Compound 34]
Criterion met

Please state whether IC50 is below 5 µM for O=C1CC2(CCN([C@@H]3CCN(C(=O)c4cc(C(F)(F)F)cc(C(F)(F)F)c4)[C@H](Cc4ccccc4)C3)CC2)CN1CC1CC1 [Compound 24]
Criterion met

Input O=C1CC2(CCN([C@@H]3CCN(C(=O)c4cc(C(F)(F)F)cc(C(F)(F)F)c4)[C@H](Cc4ccccc4)C3)CC2)CN1Cc1ccccc1F [Compound 33] ; condition: IC50 strictly below 5 µM. Does it hold?
Criterion not met

API: query returns whether the compound falls strictly under 5 µM in IC50. Query: Cc1ccccc1CN1CC2(CCN([C@@H]3CCN(C(=O)c4cc(C(F)(F)F)cc(C(F)(F)F)c4)[C@H](Cc4ccccc4)C3)CC2)CC1=O [Compound 32]
Criterion not met

Strictly below 5 µM in IC50? O=C(c1cc(C(F)(F)F)cc(C(F)(F)F)c1)N1CC[C@H](N2CCCC3(CCCN3C(=O)C3CC3)C2)C[C@H]1Cc1ccccc1 (some centres unmarked) [Compound 46]
Criterion met

Bench note: check whether O=C(C1CC1)N1CC2(CCN([C@H]3CCN(C(=O)c4cc(C(F)(F)F)cc(C(F)(F)F)c4)[C@H](Cc4ccccc4)C3)CC2)c2ccccc21 [Compound 37] shows IC50 below 5 µM
Criterion not met

State whether 5 µM exceeds IC50 recorded for O=C(c1ccoc1)N1CCC2(CCN([C@H]3CCN(C(=O)c4cc(C(F)(F)F)cc(C(F)(F)F)c4)[C@H](Cc4ccccc4)C3)CC2)C1 [Compound 8] .
Criterion not met

Quick check: IC50 of O=C1CC2(CCN([C@@H]3CCN(C(=O)c4cc(C(F)(F)F)cc(C(F)(F)F)c4)[C@H](Cc4ccccc4)C3)CC2)CN1Cc1ccccc1 [Compound 31] under 5 µM?
Criterion met

# strict comparison: is reported IC50 < 5 µM? input = O=C(C1CCOC1)N1CCC2(CCN([C@@H]3CCN(C(=O)c4cc(C(F)(F)F)cc(C(F)(F)F)c4)[C@H](Cc4ccccc4)C3)CC2)C1 (some centres unmarked) [Compound 11]
Criterion not met

Please indicate whether the reported IC50 of O=C1CC2(CCN([C@@H]3CCN(C(=O)c4cc(C(F)(F)F)cc(C(F)(F)F)c4)[C@H](Cc4ccccc4)C3)CC2)CN1Cc1ccccc1Cl [Compound 35] is strictly below 5 µM.
Criterion not met

----------
For each record, write down the corresponding IC50.
ASSAYED_TARGET: NK2 (Homo sapiens, UniProt P21452)
ASSAY_OVERVIEW: Signal transduction (ST), intracellular Ca++ (FLIPR), NK2
Assay type: cell-based
MEASUREMENT_CONDITIONS: antagonist, Ca++ transient peak, read-out: pIC50 NK2 (converted)
Write the answer as a number in µM, unit excluded.

Summary for this compound, O=C1CC2(CCN(C3CCN(C(=O)c4cc(C(F)(F)F)cc(C(F)(F)F)c4)C(Cc4ccccc4)C3)CC2)CN1CC1CCCO1 (stereo not shown) : IC50 is 5.5

Lab note: measured IC50 of O=C(c1ccoc1)N1CCC2(CCN(C3CCN(C(=O)c4cc(C(F)(F)F)cc(C(F)(F)F)c4)C(Cc4ccccc4)C3)CC2)C1 (stereo not shown) was 7.59
